// provenance: ChEMBL document CHEMBL5370585

// remaining at 4 h, 1 ug/ml lookup, one value per entry
Assay: Stability in mouse plasma assessed as parent compound remaining at 1 ug/ml measured after 240 mins by LC-MS/MS analysis
Format: ADME, cell-free
Details: at 1 µg/mL, read-out: Stability
# value in %; strip the unit string

Nc1nc(N)c2c(ccc3c2ccn3Cc2ccc3scnc3c2)n1 = 92.6

Here is the next item to consider.
Input Cc1cc2c3c(N)nc(N)nc3ccc2n1Cc1nc2ccccc2s1 . Output remaining at 4 h, 1 ug/ml: 98.5

* * *

Test system: Enterococcus faecalis
Assay: Antibacterial activity against Enterococcus faecalis ATCC 29212 incubated for 16 to 18 hrs by CLSI based broth dilution method
Type: functional
Conditions: time 16-18 hrs
// MIC lookup, one value per entry
# value in µg/mL; strip the unit string

Example compounds with recorded MIC:
Nc1nc(N)c2c(ccc3c2ccn3Cc2ccc(Br)c3ccccc23)n1 = 0.125
Nc1nc(N)c2c(ccc3c2ccn3Cc2cc3ccccc3o2)n1 = 0.25

Input Nc1nc(N)c2c(ccc3c2ccn3Cc2ccc3ncsc3c2)n1 . Output MIC: 0.25

Input Nc1nc(N)c2c(ccc3c2ccn3Cc2ccc(C(=O)O)c3ccccc23)n1 . Output MIC: 2
